Item-by-item account of pEC50
Molecular target: SOS-mediated nucleotide exchange on Ras (Homo sapiens)
Sequence (Q07889 whole entry): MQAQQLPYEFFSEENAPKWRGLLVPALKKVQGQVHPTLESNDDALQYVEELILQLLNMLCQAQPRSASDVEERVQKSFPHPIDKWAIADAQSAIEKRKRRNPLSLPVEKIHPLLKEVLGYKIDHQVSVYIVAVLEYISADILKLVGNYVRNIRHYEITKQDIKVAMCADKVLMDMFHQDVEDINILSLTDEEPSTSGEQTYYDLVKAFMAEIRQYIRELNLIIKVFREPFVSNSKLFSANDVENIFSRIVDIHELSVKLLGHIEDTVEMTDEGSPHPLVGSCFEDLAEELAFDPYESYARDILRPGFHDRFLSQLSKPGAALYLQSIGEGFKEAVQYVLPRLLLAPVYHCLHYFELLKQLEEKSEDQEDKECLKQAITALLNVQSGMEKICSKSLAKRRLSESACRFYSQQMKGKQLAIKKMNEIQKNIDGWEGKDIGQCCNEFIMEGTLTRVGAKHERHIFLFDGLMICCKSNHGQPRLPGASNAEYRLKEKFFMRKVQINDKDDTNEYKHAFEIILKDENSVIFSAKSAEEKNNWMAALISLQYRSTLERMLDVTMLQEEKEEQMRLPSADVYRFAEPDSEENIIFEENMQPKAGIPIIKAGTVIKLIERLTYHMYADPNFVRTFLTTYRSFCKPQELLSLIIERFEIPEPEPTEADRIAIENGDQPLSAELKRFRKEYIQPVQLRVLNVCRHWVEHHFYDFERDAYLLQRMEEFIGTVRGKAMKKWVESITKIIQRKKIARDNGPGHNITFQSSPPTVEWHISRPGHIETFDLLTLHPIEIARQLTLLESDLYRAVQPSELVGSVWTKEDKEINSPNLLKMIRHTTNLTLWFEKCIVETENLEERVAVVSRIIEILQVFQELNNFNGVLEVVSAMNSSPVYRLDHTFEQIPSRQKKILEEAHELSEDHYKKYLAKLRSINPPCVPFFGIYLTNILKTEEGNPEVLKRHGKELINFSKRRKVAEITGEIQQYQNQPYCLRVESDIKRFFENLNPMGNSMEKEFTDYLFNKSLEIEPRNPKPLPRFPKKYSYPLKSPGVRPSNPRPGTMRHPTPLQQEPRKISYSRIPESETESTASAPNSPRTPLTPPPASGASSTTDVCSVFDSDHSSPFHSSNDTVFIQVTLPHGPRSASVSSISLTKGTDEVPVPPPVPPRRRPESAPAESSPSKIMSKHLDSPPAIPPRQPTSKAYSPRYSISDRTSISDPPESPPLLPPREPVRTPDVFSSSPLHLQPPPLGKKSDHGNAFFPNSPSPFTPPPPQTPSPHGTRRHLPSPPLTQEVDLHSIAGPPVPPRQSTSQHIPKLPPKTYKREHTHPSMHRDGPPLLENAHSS
Test: SOS-mediated nucleotide exchange on Ras (BODIPY-GDP fluorescence)
Conditions: Ras loaded with BODIPY-GDP, GTP and SOS added; EC50 from derived exchange rates
pEC50: −log10 of the molar value.

Recorded results for 5 compounds are shown here.
C[C@@H](Nc1nc(Nc2cc(F)cc(F)c2)nc2ccc(CCN)cc12)C1CC1: 5.30 to 6.00
FC(F)(F)c1cccc(Nc2nc(NCc3ccco3)c3ccccc3n2)c1: 4.52 to 5.30
C[C@@H](Nc1nc(Nc2ccc(F)c(Cl)c2)nc2c(NCC3CNC3)cccc12)C1CC1: 4.52 to 5.30
CC[C@@H](Nc1nc(Nc2ccc(F)c(Cl)c2)nc2ccccc12)C1CCCC1: < 4.52
C[C@@H](Nc1nc(Nc2ccc(F)c(Cl)c2)nc2c(CC3CC(N)C3)cccc12)C1CC1 (some centres unmarked): 5.30 to 6.00

Asked: Fill in: pEC50 of C[C@@H](Nc1nc(NCC2CCCCC2)nc2c(CN)cccc12)C1CC1 is ___
Given back: 5.30 to 6.00

Asked: Given the compound C[C@@H](Nc1nc(NCc2cccc(Cl)c2F)nc2ccccc12)C1CC1 , what is its reported pEC50?
Given back: 5.30 to 6.00

Asked: Endpoint output: pEC50 of CCC(CC)CNc1nc(Nc2ccc(F)c(Cl)c2)nc2c(C3=CCNCC3)cccc12 . Value?
Given back: 4.52 to 5.30
